compounds and their reported pKd
# measurement notes: Binding affinity to biotinylated hairpin DNA (unknown origin) assessed as binding constant by SPR analysis
For clarity, pKd is expressed as the negative log10 of concentration in mol/L.

Ask: Suppose we examine the compound `CC(C)[C@H]1C(=O)NC[C@@H](NC(=O)c2nc3ccccc3cc2O)C(=O)N2CCCC[C@H]2C(=O)NCC(=O)N(C)CC(=O)N(C)C2(CC2)C(=O)NC[C@@H](NC(=O)c2nc3ccccc3cc2O)C(=O)N2CCCC[C@H]2C(=O)NCC(=O)N(C)CC(=O)N1C` ; what pKd value has been reported?
Reply: 6.15

====

# Test system: Clupeidae
# measurement notes: Binding affinity to Herring sperm DNA assessed as melting temperature by differential scanning calorimetric analysis
molecules and their reported Tm
Please reply with the bare figure in °C and do not write the unit itself.

Ask: Request - read-out Tm | tested on Clupeidae | molecule `CC[C@H](C)[C@H]1C(=O)NC[C@@H](NC(=O)c2nc3ccccc3cc2O)C(=O)N2CCCC[C@H]2C(=O)NCC(=O)N(C)CC(=O)N(C)[C@@H]([C@@H](C)CC)C(=O)NC[C@@H](NC(=O)c2nc3ccccc3cc2O)C(=O)N2CCCC[C@H]2C(=O)NCC(=O)N(C)CC(=O)N1C`
Reply: 91

Ask: Request - read-out Tm | tested on Clupeidae | molecule `CC(C)[C@H]1C(=O)N(C)C[C@@H](NC(=O)c2nc3ccccc3cc2O)C(=O)N2CCCC[C@H]2C(=O)NCC(=O)N(C)CC(=O)N(C)[C@@H](C(C)C)C(=O)N(C)C[C@@H](NC(=O)c2nc3ccccc3cc2O)C(=O)N2CCCC[C@H]2C(=O)NCC(=O)N(C)CC(=O)N1C`
Reply: 88

Next:
Ask: Request - read-out Tm | tested on Clupeidae | molecule `CC(C)[C@H]1C(=O)NC[C@@H](NC(=O)c2nc3ccccc3cc2O)C(=O)N2CCCC[C@H]2C(=O)NCC(=O)N(C)CC(=O)N2CCCCC[C@H]2C(=O)NC[C@@H](NC(=O)c2nc3ccccc3cc2O)C(=O)N2CCCC[C@H]2C(=O)NCC(=O)N(C)CC(=O)N1C`
Reply: 88
